Recorded values, source the METLIN SMRT retention time set (Domingo-Almenara et al. 2019).

- assay-text: gradient 5% acetonitrile 3 min, to 50% in 2 min, to 85% in 15 min, held 3 min, 100 µL/min
- test-settings: column: Zorbax Extend-C18 2.1 x 50 mm; eluents: water / acetonitrile, 0.1% formic acid
Reported RP-LC retention time by item:
Give just the numeric value; s need not be written.

Use these answered entries as a reference point.
Any idea what RP-LC retention time was measured for COCCNC(=O)Cc1ccc(NC(=O)c2ccc(C(C)(C)C)cc2)cc1 ? 790

Which measured RP-LC retention time value corresponds to CCc1nn2c(CNC(=O)c3cccs3)c(-c3ccccc3)nc2s1 ? 866

GET /values?readout=RP-LC retention time&item= COc1ccc(-n2nc(C(F)(F)F)cc2-c2ccc(Cl)cc2)cc1 1250

Please examine the following record next.
Need RP-LC retention time, item O=C(Cn1nc2c3cc(-c4ccccc4)nn3ccn2c1=O)NC1CCCCC1 873
